Tested on: human TNF-α
Assay: TNF-α assay: suppression of TNF-α production by LPS-stimulated PBMC (ELISA)
Assay type: cell-based
Conditions: Homo sapiens, PBMC; Table 4; LPS 1 μg/ml, 72 hours
pIC50: −log10 of the molar value.
pIC50 by entry:

# example entries with known answers
Prompt: Fill in: pIC50 of CCCOc1ccc(-c2cnc3nc(N)nc(N4CCOCC4)c3n2)cc1 [Example 107] is ___
Completion: < 5.00

Prompt: Fill in: pIC50 of CCS(=O)(=O)Nc1cccc(-c2cnc3nc(N)nc(N4CCOCC4)c3n2)c1 [Example 97] is ___
Completion: < 5.00

Prompt: Fill in: pIC50 of Nc1nc(N2CCOCC2)c2nc(-c3ccc(O)cc3)cnc2n1 [Example 102] is ___
Completion: 5.68

---
Prompt: Fill in: pIC50 of CCOc1ccc(-c2cnc3nc(N)nc(N4CCOCC4)c3n2)cc1 [Example 103] is ___
Completion: < 5.00
